System: A549
EXPERIMENTAL_PROTOCOL: Antiproliferative activity against human A549 cells assessed as inhibition of cell viability measured after 72 hrs by MTT assay
Type: functional, cell-based
MEASUREMENT_CONTEXT: A549, 72 h
Below is a list of entries, each paired with its recorded pIC50 value.
// pIC50 is dimensionless: -log10 of concentration (M)

Cc1cc(Nc2ccc(NC(=O)c3ccc(Nc4ccnc5ccccc45)cc3)cc2)nc(N)n1	5.02

# get_value(readout='pIC50', item= `CN1CCC(Nc2nc(-c3ccnc(F)c3)nc3c2ccn3CCCN2CCCC2)CC1` ) 6.14

====

Below is a list of entries, each paired with its recorded inhibition value.
TARGET_SYSTEM: DNA (cytosine-5)-methyltransferase 3A (Homo sapiens)
EXPERIMENTAL_PROTOCOL: Inhibition of DNMT3A (unknown origin) at 5 uM preincubated for 15 mins followed by substrate and [3H-SAM] addition and measured after 60 mins by microbeta analysis relative to control
MEASUREMENT_CONTEXT: time 75.0 min
Enter your answer as a number in %; do not include the unit.

# get_value(readout='inhibition', item= `Cc1ccc(-c2cc(NCC3CCN(Cc4ccccc4)CC3)c3cnn(CCCN4CCCC4)c3c2)o1` ) 25

# get_value(readout='inhibition', item= `Cc1ccc(-c2cc(NC3CCN(C(C)C)CC3)c3cnn(CCCN4CCCC4)c3c2)o1` ) 13

# get_value(readout='inhibition', item= `CC(C)(C)OC(=O)N1CCC(CNc2cc(-c3ccc(F)cc3)cc3c2cnn3CCCN2CCCC2)CC1` ) 6.8

# get_value(readout='inhibition', item= `COc1ccc(-c2nc(NC3CCN(C)CC3)c3ccn(CCCN4CCCC4)c3n2)cn1` ) 15

====

TARGET_SYSTEM: Histone-lysine N-methyltransferase EHMT2 (Homo sapiens) (UniProt Q96KQ7)
Sequence (Q96KQ7 whole entry): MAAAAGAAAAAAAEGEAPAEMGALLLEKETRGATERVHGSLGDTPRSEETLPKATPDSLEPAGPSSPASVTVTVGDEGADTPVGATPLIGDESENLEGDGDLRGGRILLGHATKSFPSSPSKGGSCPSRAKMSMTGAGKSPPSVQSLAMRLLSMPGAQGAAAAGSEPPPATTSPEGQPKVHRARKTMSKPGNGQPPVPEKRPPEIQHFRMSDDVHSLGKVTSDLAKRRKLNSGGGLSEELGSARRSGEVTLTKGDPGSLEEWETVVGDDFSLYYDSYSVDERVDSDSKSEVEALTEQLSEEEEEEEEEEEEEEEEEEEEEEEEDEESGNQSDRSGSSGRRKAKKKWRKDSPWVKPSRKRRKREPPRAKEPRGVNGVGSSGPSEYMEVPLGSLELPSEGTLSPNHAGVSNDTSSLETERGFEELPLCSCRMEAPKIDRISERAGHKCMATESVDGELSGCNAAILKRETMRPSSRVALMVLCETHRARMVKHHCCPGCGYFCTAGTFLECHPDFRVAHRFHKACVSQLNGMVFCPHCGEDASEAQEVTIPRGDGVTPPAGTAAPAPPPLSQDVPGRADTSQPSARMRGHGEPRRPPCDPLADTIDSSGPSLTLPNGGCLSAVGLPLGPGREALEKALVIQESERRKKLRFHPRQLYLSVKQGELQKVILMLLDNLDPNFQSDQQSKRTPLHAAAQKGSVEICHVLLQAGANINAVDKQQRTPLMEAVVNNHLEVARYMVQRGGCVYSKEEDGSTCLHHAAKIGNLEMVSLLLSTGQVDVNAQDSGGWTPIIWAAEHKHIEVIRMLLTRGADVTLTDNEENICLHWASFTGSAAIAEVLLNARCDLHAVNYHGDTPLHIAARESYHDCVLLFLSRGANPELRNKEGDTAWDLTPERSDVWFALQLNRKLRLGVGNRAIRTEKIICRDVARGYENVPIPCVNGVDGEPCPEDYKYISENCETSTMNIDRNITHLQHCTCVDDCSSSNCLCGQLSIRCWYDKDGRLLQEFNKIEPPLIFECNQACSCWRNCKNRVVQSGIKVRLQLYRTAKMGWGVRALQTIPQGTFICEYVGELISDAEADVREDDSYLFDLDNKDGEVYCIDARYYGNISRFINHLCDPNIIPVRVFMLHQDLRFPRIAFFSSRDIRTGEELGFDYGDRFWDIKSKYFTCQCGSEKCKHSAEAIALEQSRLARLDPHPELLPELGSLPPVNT
EXPERIMENTAL_PROTOCOL: Inhibition of G9a (unknown origin) at 5 uM preincubated for 15 mins followed by substrate and [3H-SAM] addition and measured after 60 mins by microbeta analysis relative to control
MEASUREMENT_CONTEXT: time 75.0 min
Below is a list of entries, each paired with its recorded inhibition value.
Enter your answer as a number in %; do not include the unit.

Solved entries (count: 3):
CN1CCC(Nc2nc(-c3ccc(C#N)c(F)c3)nc3c2ccn3CCCN2CCCC2)CC1	-1.3
CN1CCC(Nc2nc(N3CCCCC3)nc3c2ccn3CCCN2CCOCC2)CC1	12
CN1CCC(Nc2nc(N3CCCCC3)nc3c2ccn3CCCN2CCCC2)CC1	1.9

# get_value(readout='inhibition', item= `CC(C)N1CCC(Nc2nc(-c3ccc(F)cc3)nc3c2ncn3CCCN2CCCC2)CC1` ) -4.9

# get_value(readout='inhibition', item= `Cc1ccc(-c2nc(NC3CCN(C)CC3)c3ccn(CCCN4CCCC4)c3n2)o1` ) 7.2

# get_value(readout='inhibition', item= `CC(C)N1CCC(Nc2nc(-c3cn[nH]c3)nc3c2ncn3CCCN2CCCC2)CC1` ) -2.4

# get_value(readout='inhibition', item= `CN1CCC(Nc2nc(-c3ccnc(F)c3)nc3c2ccn3CCCN2CCCC2)CC1` ) 0.3

# get_value(readout='inhibition', item= `Cc1ccc(-c2cc(NCC3CCNCC3)c3cnn(CCCN4CCCC4)c3c2)o1` ) 22

# get_value(readout='inhibition', item= `Cc1ccc(-c2cc(NCC3CCN(C(=O)OCc4ccccc4)CC3)c3cnn(CCCN4CCCC4)c3c2)o1` ) 9.7

# get_value(readout='inhibition', item= `CN1CCC(Nc2nc(-c3ccccc3)nc3c2ccn3CCCN2CCCC2)CC1` ) 1.1

# get_value(readout='inhibition', item= `CN1CCC(Nc2nc(-c3cn[nH]c3)nc3c2ccn3CCCN2CCCC2)CC1` ) -2

# get_value(readout='inhibition', item= `Cc1ccc(-c2cc(NC3CCN(C(C)C)CC3)c3cnn(CCCN4CCCC4)c3c2)o1` ) 12

====

TARGET_SYSTEM: DNA (cytosine-5)-methyltransferase 3A (Homo sapiens, UniProt Q9Y6K1)
Sequence (Q9Y6K1 whole entry, looked up): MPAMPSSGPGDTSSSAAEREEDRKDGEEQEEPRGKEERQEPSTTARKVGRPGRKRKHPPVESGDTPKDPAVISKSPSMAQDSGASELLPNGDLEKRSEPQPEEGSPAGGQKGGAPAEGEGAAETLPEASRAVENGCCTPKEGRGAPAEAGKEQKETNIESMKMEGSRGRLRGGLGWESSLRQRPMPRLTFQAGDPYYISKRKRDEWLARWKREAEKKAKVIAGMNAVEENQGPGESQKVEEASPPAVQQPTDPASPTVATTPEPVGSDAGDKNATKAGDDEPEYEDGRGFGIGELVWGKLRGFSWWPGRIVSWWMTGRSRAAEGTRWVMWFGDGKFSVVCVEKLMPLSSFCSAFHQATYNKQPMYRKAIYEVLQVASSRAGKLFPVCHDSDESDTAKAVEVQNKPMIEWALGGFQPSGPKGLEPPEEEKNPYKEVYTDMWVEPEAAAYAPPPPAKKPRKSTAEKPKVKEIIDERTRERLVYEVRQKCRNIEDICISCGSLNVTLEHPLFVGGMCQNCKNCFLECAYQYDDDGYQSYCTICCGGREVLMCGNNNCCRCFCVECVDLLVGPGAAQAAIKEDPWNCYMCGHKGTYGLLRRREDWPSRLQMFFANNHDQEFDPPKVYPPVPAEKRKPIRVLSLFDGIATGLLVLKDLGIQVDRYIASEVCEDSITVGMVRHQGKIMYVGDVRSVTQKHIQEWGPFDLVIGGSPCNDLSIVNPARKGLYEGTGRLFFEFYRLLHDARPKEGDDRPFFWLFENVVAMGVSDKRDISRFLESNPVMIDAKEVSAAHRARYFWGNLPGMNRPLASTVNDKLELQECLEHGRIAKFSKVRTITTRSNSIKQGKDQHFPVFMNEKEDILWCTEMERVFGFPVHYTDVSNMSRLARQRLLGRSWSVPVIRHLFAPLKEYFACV
EXPERIMENTAL_PROTOCOL: Inhibition of DNMT3A (unknown origin) at 5 uM preincubated for 15 mins followed by substrate and [3H-SAM] addition and measured after 60 mins by microbeta analysis relative to control
MEASUREMENT_CONTEXT: time 75.0 min
# inhibition >= 10% gives Y, anything below gives N

Before answering, review these 4 worked examples.
CC(C)N1CCC(Nc2nc(-c3ccccc3)nc3c2ncn3CCCN2CCCC2)CC1	Y
Cc1ccc(-c2cc(NCC3CCNCC3)c3cnn(CCCN4CCCC4)c3c2)o1	Y
CN1CCC(Nc2nc(N3CCCCC3)nc3c2ccn3CCCN2CCOCC2)CC1	N
CC(C)N1CCC(Nc2nc(N3CCN(C)CC3)nc3c2ccn3CCCN2CCCC2)CC1	N

State whether the measured inhibition reaches 10%, counting equality as reaching it, for `CC(C)N1CCC(Nc2nc(N3CCN(C)CC3)nc3c2ncn3CCCN2CCCC2)CC1` N

State whether the measured inhibition reaches 10%, counting equality as reaching it, for `CN1CCC(Nc2nc(-c3ccnc(F)c3)nc3c2ccn3CCCN2CCCC2)CC1` Y

====

Below is a list of entries, each paired with its recorded IC50 value.
Test system: U-937
EXPERIMENTAL_PROTOCOL: Antiproliferative activity against human U-937 cells assessed as inhibition of cell viability measured after 72 hrs by MTT assay
Type: functional, cell-based
MEASUREMENT_CONTEXT: U-937, 72 h
Enter your answer as a number in µM; do not include the unit.

Solved entries (count: 5):
Cc1ccc(-c2cc(NCC3CCN(C(=O)OC(C)(C)C)CC3)c3cnn(CCCN4CCCC4)c3c2)o1	3.21
CN1CCC(Nc2nc(-c3ccc(F)cc3)nc3c2ccn3CCCN2CCCC2)CC1	2.45
COc1ccc(-c2cc(NCC3CCN(Cc4ccccc4)CC3)c3cnn(CCCN4CCCC4)c3c2)cc1	1.02
Cc1ccc(-c2cc(NC3CCN(C(C)C)CC3)c3cnn(CCCN4CCCC4)c3c2)o1	12.2
CN1CCC(Nc2nc(-c3ccccc3)nc3c2ccn3CCCN2CCCC2)CC1	18.2

# get_value(readout='IC50', item= `Cc1ccc(-c2nc(NC3CCN(C(C)C)CC3)c3ncn(CCCN4CCCC4)c3n2)o1` ) 55.2

# get_value(readout='IC50', item= `CC(C)N1CCC(Nc2nc(-c3ccccc3)nc3c2ncn3CCCN2CCCC2)CC1` ) 12.4

# get_value(readout='IC50', item= `Cc1ccc(-c2cc(NCC3CCN(Cc4ccccc4)CC3)c3cnn(CCCN4CCCC4)c3c2)o1` ) 1.59

# get_value(readout='IC50', item= `CC(C)N1CCC(Nc2nc(N3CCN(C)CC3)nc3c2ccn3CCCN2CCCC2)CC1` ) 15.6

====

Below is a list of entries, each paired with its recorded IC50 value.
System: DOHH-2
EXPERIMENTAL_PROTOCOL: Antiproliferative activity against human DOHH-2 cells assessed as inhibition of cell viability measured after 72 hrs by MTT assay
Assay type: functional, cell-based
MEASUREMENT_CONTEXT: DOHH-2, 72 h
Enter your answer as a number in nM; do not include the unit.

Solved entries (count: 3):
COc1cc2c(NC3CCN(C)CC3)cc(-c3ccc(C)o3)nc2cc1OCCCN1CCCC1	230
CCc1c(C#N)c(SC(C(N)=O)c2ccccc2)nc(N2CCC(N)CC2)c1C#N (centres undefined)	11100
CN1CCC(Nc2nc(-c3ccnc(F)c3)nc3c2ccn3CCCN2CCCC2)CC1	190

# get_value(readout='IC50', item= `Nc1ncn([C@@H]2O[C@H](CO)[C@@H](O)[C@H]2O)c(=O)n1` ) 340

====

TARGET_SYSTEM: DNA (cytosine-5)-methyltransferase 1 (Homo sapiens, UniProt P26358)
Sequence (P26358 whole entry): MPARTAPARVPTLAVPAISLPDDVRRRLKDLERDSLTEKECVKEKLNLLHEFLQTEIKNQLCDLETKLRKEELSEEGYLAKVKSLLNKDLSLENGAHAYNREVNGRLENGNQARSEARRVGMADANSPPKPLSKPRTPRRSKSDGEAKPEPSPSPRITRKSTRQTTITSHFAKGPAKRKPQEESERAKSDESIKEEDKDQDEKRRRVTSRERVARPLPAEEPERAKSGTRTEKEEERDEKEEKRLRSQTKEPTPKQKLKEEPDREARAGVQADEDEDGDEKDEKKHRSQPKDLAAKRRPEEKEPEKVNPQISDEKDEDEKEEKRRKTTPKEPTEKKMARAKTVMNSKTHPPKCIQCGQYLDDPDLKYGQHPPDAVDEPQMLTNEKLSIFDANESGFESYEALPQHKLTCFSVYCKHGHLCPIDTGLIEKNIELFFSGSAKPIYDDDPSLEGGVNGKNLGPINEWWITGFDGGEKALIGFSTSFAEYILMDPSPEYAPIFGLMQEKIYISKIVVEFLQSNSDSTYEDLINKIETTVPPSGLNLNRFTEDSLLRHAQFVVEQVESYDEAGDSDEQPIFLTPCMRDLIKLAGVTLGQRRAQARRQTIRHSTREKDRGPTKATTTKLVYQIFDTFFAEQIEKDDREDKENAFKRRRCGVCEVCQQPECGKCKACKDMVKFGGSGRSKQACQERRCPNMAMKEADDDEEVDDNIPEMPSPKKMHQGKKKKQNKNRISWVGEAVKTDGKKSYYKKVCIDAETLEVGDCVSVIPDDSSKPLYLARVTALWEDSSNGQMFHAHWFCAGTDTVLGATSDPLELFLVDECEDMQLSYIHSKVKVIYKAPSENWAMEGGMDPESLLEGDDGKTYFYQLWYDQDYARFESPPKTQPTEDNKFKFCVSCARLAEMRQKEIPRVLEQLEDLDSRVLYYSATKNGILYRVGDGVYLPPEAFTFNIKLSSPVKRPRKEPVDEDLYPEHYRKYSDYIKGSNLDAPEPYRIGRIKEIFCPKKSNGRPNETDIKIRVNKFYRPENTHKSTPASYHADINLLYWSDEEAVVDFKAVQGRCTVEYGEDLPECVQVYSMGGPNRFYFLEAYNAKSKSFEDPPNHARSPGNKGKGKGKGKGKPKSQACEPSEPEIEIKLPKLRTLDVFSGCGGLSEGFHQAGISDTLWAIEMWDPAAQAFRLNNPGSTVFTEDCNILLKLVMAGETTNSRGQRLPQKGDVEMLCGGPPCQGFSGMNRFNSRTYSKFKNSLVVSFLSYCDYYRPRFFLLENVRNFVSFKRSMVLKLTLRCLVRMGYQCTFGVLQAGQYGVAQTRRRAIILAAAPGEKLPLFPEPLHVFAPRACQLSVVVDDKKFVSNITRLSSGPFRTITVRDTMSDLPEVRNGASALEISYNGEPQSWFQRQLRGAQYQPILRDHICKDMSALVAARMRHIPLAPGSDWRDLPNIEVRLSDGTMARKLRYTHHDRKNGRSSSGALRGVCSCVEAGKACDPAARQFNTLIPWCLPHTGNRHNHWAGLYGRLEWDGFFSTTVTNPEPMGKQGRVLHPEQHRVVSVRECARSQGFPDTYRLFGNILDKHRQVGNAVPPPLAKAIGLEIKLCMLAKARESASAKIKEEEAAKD
EXPERIMENTAL_PROTOCOL: Inhibition of DNMT1 (unknown origin) at 5 uM preincubated for 15 mins followed by substrate and [3H-SAM] addition and measured after 60 mins by microbeta analysis relative to control
MEASUREMENT_CONTEXT: time 75.0 min
MEASUREMENT_LABEL: inhibition (%)
Enter your answer as a number in %; do not include the unit.

# get_value(readout='inhibition', item= `CC(C)N1CCC(Nc2nc(-c3ccccc3)nc3c2ncn3CCCN2CCCC2)CC1` ) 7.2

====

Tested on: MV4-11
EXPERIMENTAL_PROTOCOL: Antiproliferative activity against human MV4-11 cells assessed as inhibition of cell viability measured after 72 hrs by MTT assay
Assay type: functional, cell-based
MEASUREMENT_CONTEXT: MV4-11, 72 h
Below is a list of entries, each paired with its recorded pIC50 value.
// pIC50 is dimensionless: -log10 of concentration (M)

Solved entries (count: 10):
CN1CCN(c2cc(NCC3CCN(C(=O)OC(C)(C)C)CC3)c3cnn(CCCN4CCOCC4)c3c2)CC1	4.66
CC(C)N1CCC(Nc2nc(-c3ccc(F)cc3)nc3c2ncn3CCCN2CCCC2)CC1	4.98
CC(C)N1CCC(Nc2nc(N3CCOCC3)nc3c2ccn3CCCN2CCCC2)CC1	4.39
Cc1ccc(-c2cc(NCC3CCNCC3)c3cnn(CCCN4CCCC4)c3c2)o1	5.63
CN1CCN(c2cc(NCC3CCN(C(=O)C4CCC4)CC3)c3cnn(CCCN4CCOCC4)c3c2)CC1	4.46
CN1CCC(Nc2nc(N3CCOCC3)nc3c2ccn3CCCN2CCCC2)CC1	4.59
CN1CCC(Nc2nc(-c3ccc(C#N)c(F)c3)nc3c2ccn3CCCN2CCCC2)CC1	5.69
Cc1ccc(-c2cc(NCC3CCN(C(=O)OCc4ccccc4)CC3)c3cnn(CCCN4CCCC4)c3c2)o1	5.97
Cc1ccc(-c2cc(NCC3CCN(Cc4ccccc4)CC3)c3cnn(CCCN4CCCC4)c3c2)o1	6.00
CC(C)N1CCC(Nc2nc(N3CCN(C)CC3)nc3c2ncn3CCCN2CCCC2)CC1	5.08

# get_value(readout='pIC50', item= `CN1CCC(Nc2nc(-c3ccc(C(F)(F)F)cc3)nc3c2ccn3CCCN2CCCC2)CC1` ) 5.94

# get_value(readout='pIC50', item= `CN1CCC(Nc2nc(N3CCCN(C)CC3)nc3c2ccn3CCCN2CCCC2)CC1` ) 4.58

# get_value(readout='pIC50', item= `CN1CCC(Nc2nc(-c3ccnc(F)c3)nc3c2ccn3CCCN2CCCC2)CC1` ) 6.02

# get_value(readout='pIC50', item= `CC(C)N1CCC(Nc2nc(-c3ccccc3)nc3c2ncn3CCCN2CCCC2)CC1` ) 5.05

# get_value(readout='pIC50', item= `CC(C)N1CCC(Nc2nc(N3CCN(C)CC3)nc3c2ccn3CCCN2CCCC2)CC1` ) 5.54

# get_value(readout='pIC50', item= `Cc1ccc(-c2nc(NC3CCN(C)CC3)c3ccn(CCCN4CCCC4)c3n2)o1` ) 4.93

# get_value(readout='pIC50', item= `CN1CCN(c2cc(NCC3CCN(C(=O)C(C)(C)C)CC3)c3cnn(CCCN4CCOCC4)c3c2)CC1` ) 4.61

# get_value(readout='pIC50', item= `CN1CCC(Nc2nc(-c3ccc(F)nc3)nc3c2ccn3CCCN2CCOCC2)CC1` ) 4.97

# get_value(readout='pIC50', item= `COc1ccc(-c2nc(NC3CCN(C)CC3)c3ccn(CCCN4CCCC4)c3n2)cn1` ) 4.99

# get_value(readout='pIC50', item= `COc1ccc(-c2cc(NCC3CCN(Cc4ccccc4)CC3)c3cnn(CCCN4CCCC4)c3c2)cc1` ) 5.84

# get_value(readout='pIC50', item= `CN1CCC(Nc2nc(N3CCN(C)CC3)nc3c2ccn3CCCN2CCCC2)CC1` ) 4.95

# get_value(readout='pIC50', item= `CN1CCC(Nc2nc(N3CCCCC3)nc3c2ccn3CCCN2CCOCC2)CC1` ) 4.62

# get_value(readout='pIC50', item= `Cc1ccc(-c2nc(NC3CCN(C(C)C)CC3)c3ncn(CCCN4CCCC4)c3n2)o1` ) 4.34

# get_value(readout='pIC50', item= `CN1CCC(Nc2nc(-c3ccncc3)nc3c2ccn3CCCN2CCCC2)CC1` ) 5.11

# get_value(readout='pIC50', item= `CN1CCN(c2cc(NCC3CCN(C(=O)NC(C)(C)C)CC3)c3cnn(CCCN4CCOCC4)c3c2)CC1` ) 4.71

# get_value(readout='pIC50', item= `Cc1ccc(-c2cc(NC3CCN(C(C)C)CC3)c3cnn(CCCN4CCCC4)c3c2)o1` ) 4.92

# get_value(readout='pIC50', item= `CN1CCC(Nc2nc(-c3ccc(F)cc3)nc3c2ccn3CCCN2CCCC2)CC1` ) 5.78

# get_value(readout='pIC50', item= `CC(C)N1CCC(Nc2nc(N3CCCCC3)nc3c2ccn3CCCN2CCCC2)CC1` ) 4.91
